Data origin: ChEMBL document CHEMBL1138347

Target or system Cholinesterase (Homo sapiens); recorded quantity IC50.
# include the unit after the value

INSERT INTO assay_data (smiles_notation, val) VALUES
  ('O=C(CCCNc1c2c(nc3ccccc13)CCCC2)CCCNc1c2c(nc3ccccc13)CCCC2', '11.3 nM'),
  ('O=C(NCCNc1c2c(nc3ccccc13)CCCC2)C(=O)NCCNc1c2c(nc3ccccc13)CCCC2', '5.44 nM'),
  ('c1ccc2c(NCCCCCCCNc3c4c(nc5ccccc35)CCCC4)c3c(nc2c1)CCCC3', '5.66 nM');

# context switch: different compound, same IC50
May I ask what IC50 has been recorded for c1ccc2c(NCCOCCOCCNc3c4c(nc5ccccc35)CCCC4)c3c(nc2c1)CCCC3 ?
35.1 nM

====

Target or system UniProt:P22303; recorded quantity pIC50.
Sequence (P22303 whole entry): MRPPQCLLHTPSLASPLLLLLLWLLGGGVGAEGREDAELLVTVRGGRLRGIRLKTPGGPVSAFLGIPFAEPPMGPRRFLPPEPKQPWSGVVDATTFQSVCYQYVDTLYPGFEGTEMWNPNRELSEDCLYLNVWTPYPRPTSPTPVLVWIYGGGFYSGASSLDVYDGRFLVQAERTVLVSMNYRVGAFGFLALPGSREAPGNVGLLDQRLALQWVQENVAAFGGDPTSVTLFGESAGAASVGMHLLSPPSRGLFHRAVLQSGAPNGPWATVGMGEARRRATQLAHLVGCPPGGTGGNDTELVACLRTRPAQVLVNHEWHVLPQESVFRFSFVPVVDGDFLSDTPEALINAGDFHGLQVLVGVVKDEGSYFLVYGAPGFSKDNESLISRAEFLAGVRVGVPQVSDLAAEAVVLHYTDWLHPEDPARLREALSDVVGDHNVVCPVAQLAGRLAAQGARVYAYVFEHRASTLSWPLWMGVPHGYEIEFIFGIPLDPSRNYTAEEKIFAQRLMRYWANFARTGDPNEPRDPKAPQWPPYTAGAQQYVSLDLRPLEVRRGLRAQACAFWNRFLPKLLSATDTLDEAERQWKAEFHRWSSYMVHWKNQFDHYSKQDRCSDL
One number for each entry, as −log10 of the molar value.

INSERT INTO assay_data (smiles_notation, readout_kind, val) VALUES
  ('c1ccc2c(NCCOCCOCCNc3c4c(nc5ccccc35)CCCC4)c3c(nc2c1)CCCC3', 'pIC50', 7.71);

# context switch: different compound, same pIC50
May I ask what pIC50 has been recorded for O=C(NCCNc1c2c(nc3ccccc13)CCCC2)C(=O)NCCNc1c2c(nc3ccccc13)CCCC2 ?
8.18
